# Tested on: Vero E6
# ASSAY: drug sensitivity score (DSS) for viability; higher = more toxic; extreme values may be limits of the assay
# SETUP CONDITIONS: 72 h
Measured drug sensitivity score, listed per entry for reference.
Output: the number by itself.

>  <COMPOUND>
COc1ccc(-n2nc(C(F)(F)F)cc2-c2ccc(Cl)cc2)cc1 [SC-560]

>  <drug sensitivity score>
3

$$$$

Query the reported drug sensitivity score for Vero E6; item: O=c1ncn2nc(Sc3ccc(F)cc3F)ccc2c1-c1c(Cl)cccc1Cl [VX-745]
1.4

Here is the next compound: CN(c1ncccc1CNc1nc(Nc2ccc3c(c2)CC(=O)N3)ncc1C(F)(F)F)S(C)(=O)=O
5.1

Here is the next compound: CCCCC[C@H](O)/C=C/[C@H]1[C@H](O)CC(=O)[C@@H]1CCCCCCC(=O)O [alprostadil]
0

Here is the next compound: CCc1ccc(Cc2ccc3c(c2)[C@]2(OC3)O[C@H](CO)[C@@H](O)[C@H](O)[C@H]2O)cc1 [tofogliflozin]
0

Here is the next compound: Cc1ccc(-c2cc(C(F)(F)F)nn2-c2ccc(S(N)(=O)=O)cc2)cc1 [celecoxib]
0

###

# System: HepG2
# ASSAY: cell viability relative to DMSO; higher = less toxic
# SETUP CONDITIONS: 72 h; 10 nM
TEST READOUT: cell viability (%)
The figure you give is taken to be in %; do not add the unit.

Here's what some known entries look like.
>  <COMPOUND>
CCN(c1cc(-c2ccc(CN3CCOCC3)cc2)cc(C(=O)NCc2c(C)cc(C)[nH]c2=O)c1C)C1CCOCC1

>  <cell viability, %>
97

$$$$
>  <COMPOUND>
CCn1cc(C(=O)O)c(=O)c2cc(F)c(N3CCN(C)CC3)cc21

>  <cell viability, %>
100

$$$$
>  <COMPOUND>
c1ccc(-c2n[nH]cc2-c2ccnc3ccccc23)nc1

>  <cell viability, %>
96.4

$$$$

Now take the following compound into account.
Return reported cell viability; argument: O=C(COc1ccc(Cl)cc1)N1CCN(Cc2ccc3c(c2)OCO3)CC1 [fipexide]
90.8

###

Measured cell viability, listed per entry for reference.
# Test system: Caco-2
# ASSAY: cell viability relative to DMSO; higher = less toxic
# SETUP CONDITIONS: 72 h; 1000 nM
The figure you give is taken to be in %; do not add the unit.

Here's what some known entries look like.
>  <COMPOUND>
CCCc1c(-c2ccc(O)cc2)nn(-c2ccc(O)cc2)c1-c1ccc(O)cc1 [PPT]

>  <UNITS LABEL>
%

>  <cell viability>
91

$$$$
>  <COMPOUND>
CN(c1ncccc1CNc1nc(Nc2ccc3c(c2)CC(=O)N3)ncc1C(F)(F)F)S(C)(=O)=O

>  <UNITS LABEL>
%

>  <cell viability>
91.5

$$$$
>  <COMPOUND>
CCCC[C@@H](NC(=O)[C@@H](Cc1cn(C(=O)OC)c2ccccc12)NC(=O)[C@H](CC(C)(C)C)NC(=O)N1[C@H](C)CCC[C@@H]1C)C(=O)O [BQ-788]

>  <UNITS LABEL>
%

>  <cell viability>
106

$$$$

Query the reported cell viability for Caco-2; item: Cc1nccc2[nH]c(=O)ccc12 [medorinone]
93.9

###

# Tested on: Vero E6
# ASSAY: cell viability relative to DMSO; higher = less toxic
# SETUP CONDITIONS: 72 h; 10 nM
TEST READOUT: cell viability (%)
The figure you give is taken to be in %; do not add the unit.

Return reported cell viability; argument: CO[C@@H]1COCC[C@@H]1N[C@@H]1CC[C@@](C(=O)N2CCc3ncc(C(F)(F)F)cc3C2)(C(C)C)C1 [MK-0812]
100

Here is the next molecule: O=c1[nH]c(=O)n([C@H]2CCCO2)cc1F (racemic) [ftorafur]
103

Here is the next molecule: CC(C)(C)NC(=O)N[C@H](C(=O)N1C[C@H]2[C@@H]([C@H]1C(=O)NC(CC1CCC1)C(=O)C(N)=O)C2(C)C)C(C)(C)C (some centres undefined) [Boceprevir]
100

Here is the next molecule: CC(=O)NCC(=O)N1[C@@H]2CC[C@H]1c1ccc(Nc3ncc(C(F)(F)F)c(NC4CCC4)n3)cc12
98.6

###

Measured cell viability, listed per entry for reference.
# Tested on: Calu-3
# ASSAY: cell viability relative to DMSO; higher = less toxic
# SETUP CONDITIONS: 72 h; 1000 nM

Here's what some known entries look like.
>  <SAMPLE SMILES>
C[C@H]1CC[C@H](n2c3cnccc3c3cnc(Nc4ccc5c(n4)CCN(C(=O)CO)C5)nc32)CC1

>  <VALUE>
109%

$$$$
>  <SAMPLE SMILES>
CCN(c1cc(-c2ccc(CN3CCOCC3)cc2)cc(C(=O)NCc2c(C)cc(C)[nH]c2=O)c1C)C1CCOCC1

>  <VALUE>
98%

$$$$
>  <SAMPLE SMILES>
Cc1nccc2[nH]c(=O)ccc12

>  <VALUE>
98.8%

$$$$

Now take the following compound into account.
Return reported cell viability; argument: c1ccc(Cn2c(-c3ccc(OC[C@H](C4CCNCC4)n4c(-c5ccccc5)nc5ccccc54)cc3)nc3ccccc32)cc1
107%

###

# System: Caco-2
# ASSAY: cell viability relative to DMSO; higher = less toxic
# SETUP CONDITIONS: 72 h; 1000 nM
Measured cell viability, listed per entry for reference.
The figure you give is taken to be in %; do not add the unit.

Here's what some known entries look like.
>  <COMPOUND>
COc1cc2c(cc1Cc1cccc(Cl)c1F)c(=O)c(C(=O)O)cn2[C@H](CO)C(C)C [elvitegravir]

>  <EXPERIMENTAL TARGET>
Caco-2

>  <cell viability (%)>
99.8

$$$$
>  <COMPOUND>
C/C(=C\C(N)C(=O)O)CP(=O)(O)O (stereo unspecified)

>  <EXPERIMENTAL TARGET>
Caco-2

>  <cell viability (%)>
90

$$$$
>  <COMPOUND>
O=C1Nc2ccc(Cl)c3c2C1(CCCCN1CC=C(c2ccc(Cl)cc2)CC1)CCC3 (stereo unspecified) [DR-4485]

>  <EXPERIMENTAL TARGET>
Caco-2

>  <cell viability (%)>
92.3

$$$$
>  <COMPOUND>
Nc1nc(O)c2[nH]nnc2n1 [azaguanine-8]

>  <EXPERIMENTAL TARGET>
Caco-2

>  <cell viability (%)>
91.9

$$$$
>  <COMPOUND>
CC(N)C12CC3CC(CC(C3)C1)C2 (stereo unspecified) [rimantadine]

>  <EXPERIMENTAL TARGET>
Caco-2

>  <cell viability (%)>
103

$$$$

Now take the following compound into account.
Query the reported cell viability for Caco-2; item: NS(=O)(=O)c1ccc(-n2nc(C(F)(F)F)cc2-c2ccc(Cl)cc2)cc1 [SC-236]
96.6

###

# Test system: U2OS
# ASSAY: drug sensitivity score (DSS) for viability; higher = more toxic; extreme values may be limits of the assay
# SETUP CONDITIONS: 72 h
TEST READOUT: drug sensitivity score
Output: the number by itself.

Here's what some known entries look like.
>  <SAMPLE SMILES>
C[C@H]1N=C(N(C)C)N=C(N)N1

>  <EXPERIMENTAL TARGET>
U2OS

>  <drug sensitivity score>
0

$$$$
>  <SAMPLE SMILES>
Cc1nccc2[nH]c(=O)ccc12

>  <EXPERIMENTAL TARGET>
U2OS

>  <drug sensitivity score>
0

$$$$
>  <SAMPLE SMILES>
CCN(c1cc(-c2ccc(CN3CCOCC3)cc2)cc(C(=O)NCc2c(C)cc(C)[nH]c2=O)c1C)C1CCOCC1

>  <EXPERIMENTAL TARGET>
U2OS

>  <drug sensitivity score>
0

$$$$
>  <SAMPLE SMILES>
O=C(Nc1nc2ccc(NC(=O)C34CC5CC(CC(C5)C3)C4)cc2s1)c1ccccc1

>  <EXPERIMENTAL TARGET>
U2OS

>  <drug sensitivity score>
4

$$$$

Now take the following compound into account.
Return reported drug sensitivity score; argument: c1ccc2c(c1)[I+]c1ccccc1-2
16

###

# Tested on: Calu-3
# ASSAY: cell viability relative to DMSO; higher = less toxic
# SETUP CONDITIONS: 72 h; 100 nM
TEST READOUT: cell viability (%)
The figure you give is taken to be in %; do not add the unit.

>  <COMPOUND>
CCCCCCCCCCC(C)(C)C(=O)Nc1c(OC)cc(OC)cc1OC [CI-976]

>  <cell viability / %>
95.5

$$$$

Return reported cell viability; argument: CC(=O)Nc1ccc(Cc2ccc(NC(C)=O)cc2)cc1 [FH1]
84.2

Here is the next compound: CCc1ccc(Cc2ccc3c(c2)[C@]2(OC3)O[C@H](CO)[C@@H](O)[C@H](O)[C@H]2O)cc1 [tofogliflozin]
108

Here is the next compound: CCOc1ccc(-n2c([C@@H](C)N(Cc3cccnc3)C(=O)Cc3ccc(F)c(C(F)(F)F)c3)nc3ncccc3c2=O)cc1 (racemic)
92.8
